- Tested on: CAKI-1 renal
- Method Notes: NCI tumour cell line growth inhibition, 48 h
Could you please report measured TGI for the items listed next?

Incoming: Could you share which TGI value was measured for C=C1c2[nH]c3c([N+](=O)[O-])c(OC)ccc3c2CCN1C(C)=O ?
Outgoing: > 100 µM

Incoming: # input molecule: NC(=S)N/N=C/c1ncccc1N ; wanted: its TGI
Outgoing: > 38.5 µM

Incoming: Can you look up the measured TGI of COc1ccc(C2SC(C)C(=O)N2NC(=O)C(O)c2ccccc2)cc1OC (stereo unspecified) for me?
Outgoing: > 100 µM

Incoming: Form field: reported TGI of O=C1c2ccccc2-c2c1c1ccccc1c(=O)n2CCN1CCOCC1
Outgoing: 90.3 µM

Incoming: Could you tell me which TGI is on file for COc1c(O)cc(O)c2c(=O)cc(-c3ccccc3)oc12 ?
Outgoing: > 100 µM

Incoming: Entry Cc1cc(Cl)ccc1NC(=O)CC/C(CC(=O)C(C)C)=N\NC(=O)C[n+]1ccccc1 : reported TGI = ?
Outgoing: > 100 µM

Incoming: Dear colleague, I am looking for the recorded TGI of the following molecule: O=C(Nc1ccc(Cl)cc1)Nc1ccc(Nc2nncc3ccccc23)cc1
Outgoing: 12.5 µM

Incoming: Please report the recorded TGI for Cc1c2c(n(CCc3ccc(Cl)cc3)c1C)NC(c1ccccc1)C(C#N)S2(=O)=O (stereo unspecified) .
Outgoing: > 100 µM

Incoming: Given the entry COc1ccc(-c2c(C#N)c(S)n(NS(=O)(=O)c3ccc(C)cc3)c(=O)c2C#N)cc1 , report its measured TGI.
Outgoing: > 100 µM

Incoming: Given the molecule CC(C)(O)CC(=O)NCCn1ccc2ncnc(Nc3ccc(Oc4cccc(C(F)(F)F)c4)c(Cl)c3)c21 , what is its reported TGI?
Outgoing: > 10 µM

Incoming: So what does the record say about TGI for COc1ccc(-c2cc(-c3ccc(Nc4ccnc5cc(Cl)ccc45)cc3)[nH]c(=O)c2C#N)c2ccccc12 ?
Outgoing: 48.4 µM

Incoming: For the molecule C=C1C(=O)OC2C1C(OC(=O)/C(C)=C/C)CC(O)(CCl)C1C(O)C3OC3(C)C21O (stereo unspecified) , what TGI is on record?
Outgoing: > 50 µM

Incoming: Sample [N-]=[N+]=NC(CI)c1cn([C@H]2C[C@H](O)[C@@H](CO)O2)c(=O)[nH]c1=O (stereo partly specified) — what was its TGI?
Outgoing: > 100 µM

Incoming: Entry under review: COc1ccc(C)cc1Nc1nnc(-c2ccccc2N)s1 . Reported TGI?
Outgoing: > 100 µM

Incoming: Entry COc1ccc2ccccc2c1C1OC(=O)c2ccccc21 (stereo unspecified) : reported TGI = ?
Outgoing: > 100 µM

Incoming: Need TGI, item C(CCCCc1nnc(N2CCCCC2)o1)CCCc1nnc(N2CCCCC2)o1
Outgoing: > 100 µM

Incoming: TGI lookup needed for O=CC1CCCc2ccccc21 (stereo unspecified) , thanks.
Outgoing: > 100 µM

Incoming: Sample O=C1/C(=N\S(=O)(=O)c2ccccc2)C([n+]2ccc(Cc3ccccc3)cc2)=C([O-])c2ccccc21 — what was its TGI?
Outgoing: 3.44 µM

Incoming: // lookup TGI for CCOC(=O)C(=Cc1cccnc1C)C(=O)OCC
Outgoing: 18.9 µM

Incoming: Endpoint output: TGI of Oc1c([Si](c2ccccc2)(c2ccccc2)c2ccccc2)cc2ccccc2c1-c1c(O)c([Si](c2ccccc2)(c2ccccc2)c2ccccc2)cc2ccccc12 . Value?
Outgoing: > 100 µM

Incoming: I am curious: what TGI value has been reported for C1CN(SSN2CCOCC2)CCO1 ?
Outgoing: > 100 µM
